- MEASUREMENT DESCRIPTION: Metabolic stability in human liver microsomes assessed as compound remaining at 5 uM after 15 mins by LC-MS/MS analysis
- Assay type: ADME
- RUN PARAMETERS: read-out: Stability
Listed next: entries and their corresponding remaining at 0.25 h, 5 µM.

{"columns": ["COMPOUND", "remaining at 0.25 h, 5 µM"],
 "data": [
  ["CC(=O)Nc1nc(C)c(-c2nc(CC(C)(C)C(C)O)no2)s1 (centres undefined)", "94.1%"],
  ["CC(=O)Nc1nc(C)c(-c2nc(CC(F)(F)F)no2)s1", "79.1%"],
  ["CC(=O)Nc1nc(C)c(-c2nc(CC(C)(C)CO)no2)s1", "102%"],
  ["CC(=O)Nc1nc(C)c(-c2nc(N3CCCC(O)C3)no2)s1 (centres undefined)", "96.9%"]
]}

* * *

- System: Salmonella typhimurium
- MEASUREMENT DESCRIPTION: Mutagenicity in Salmonella typhimurium TA98 up to 5000 ug/ml by Ames test in absence of rat S9 fraction
- Type: toxicity, organism-based
- RUN PARAMETERS: salmonella enterica subsp. enterica serovar typhimurium

{"columns": ["COMPOUND", "ASSAYED TARGET", "Activity"],
 "data": [
  ["CC(=O)Nc1nc(C)c(-c2nc(N3CCCC(O)C3)no2)s1 (stereo not given)", "Salmonella typhimurium", "Non-toxic"],
  ["Cc1nc(N)sc1-c1nc(C(C)(C)C)no1", "Salmonella typhimurium", "Non-toxic"],
  ["CC(=O)Nc1nc(C)c(-c2cnc(C(C)(C)C)o2)s1", "Salmonella typhimurium", "Non-toxic"],
  ["Cc1nc(N)sc1-c1cnc(C(C)(C)C)o1", "Salmonella typhimurium", "Toxic"],
  ["Cc1nc(N)sc1-c1nc(N2CCCC(O)C2)no1 (stereo not given)", "Salmonella typhimurium", "Non-toxic"]
]}

* * *

- ASSAYED TARGET: Phosphatidylinositol 4,5-bisphosphate 3-kinase catalytic subunit gamma isoform (Homo sapiens, UniProt P48736)
- Sequence (P48736 whole entry, canonical isoform): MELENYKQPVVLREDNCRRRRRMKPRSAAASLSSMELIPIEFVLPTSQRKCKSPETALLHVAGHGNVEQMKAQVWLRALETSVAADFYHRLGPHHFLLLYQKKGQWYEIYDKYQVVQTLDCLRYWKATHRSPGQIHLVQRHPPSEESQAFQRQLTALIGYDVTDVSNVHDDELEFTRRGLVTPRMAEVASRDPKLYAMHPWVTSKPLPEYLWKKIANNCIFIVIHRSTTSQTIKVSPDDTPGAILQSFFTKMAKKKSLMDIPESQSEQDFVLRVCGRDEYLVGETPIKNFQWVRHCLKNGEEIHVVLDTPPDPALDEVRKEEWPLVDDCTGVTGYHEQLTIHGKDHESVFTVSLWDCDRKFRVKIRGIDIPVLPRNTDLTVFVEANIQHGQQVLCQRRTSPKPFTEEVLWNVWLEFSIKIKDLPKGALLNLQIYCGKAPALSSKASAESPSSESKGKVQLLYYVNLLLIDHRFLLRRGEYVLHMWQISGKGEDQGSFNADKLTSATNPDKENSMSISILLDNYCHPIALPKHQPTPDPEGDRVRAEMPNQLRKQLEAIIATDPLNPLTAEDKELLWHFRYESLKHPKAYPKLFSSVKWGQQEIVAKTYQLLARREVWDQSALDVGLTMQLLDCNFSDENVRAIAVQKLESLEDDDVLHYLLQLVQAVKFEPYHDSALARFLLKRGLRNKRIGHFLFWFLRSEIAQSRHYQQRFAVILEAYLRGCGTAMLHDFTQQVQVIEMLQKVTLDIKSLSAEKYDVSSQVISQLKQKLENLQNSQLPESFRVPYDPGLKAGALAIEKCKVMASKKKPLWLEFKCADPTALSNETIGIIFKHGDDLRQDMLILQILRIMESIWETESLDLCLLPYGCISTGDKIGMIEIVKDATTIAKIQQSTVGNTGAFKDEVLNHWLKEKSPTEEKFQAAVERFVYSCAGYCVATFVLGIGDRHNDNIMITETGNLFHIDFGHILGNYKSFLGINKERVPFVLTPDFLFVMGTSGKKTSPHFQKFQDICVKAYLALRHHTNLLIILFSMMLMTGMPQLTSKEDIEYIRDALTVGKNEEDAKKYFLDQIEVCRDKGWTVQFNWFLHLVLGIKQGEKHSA
- MEASUREMENT DESCRIPTION: Inhibition of human PI3Kgamma using PtdIns/PtdSer as substrate after 2 hrs by scintillation counting analysis in presence of gamma[33P]ATP

{"columns": ["COMPOUND", "IC50, nM"],
 "data": [
  ["CC(=O)Nc1nc(C)c(-c2nc(CC(C)(C)CO)no2)s1", 7.2],
  ["CC(=O)Nc1nc(C)c(-c2nc(N3CCCC(O)C3)no2)s1 (stereo unspecified)", 29],
  ["Cc1nc(N)sc1-c1cnc(C(C)(C)C)o1", 81],
  ["CC(=O)Nc1nc(C)c(-c2nc(CCO)no2)s1", 158],
  ["CC(=O)Nc1nc(C)c(-c2nc(CCCO)no2)s1", 121],
  ["CC(=O)Nc1nc(C)c(-c2nc(C(C)(C)CO)no2)s1", 52]
]}

* * *

- System: Salmonella typhimurium
- MEASUREMENT DESCRIPTION: Mutagenicity in Salmonella typhimurium TA100 up to 5000 ug/ml by Ames test in presence of rat S9 fraction
- Type: toxicity, organism-based
- RUN PARAMETERS: salmonella enterica subsp. enterica serovar typhimurium
MEASUREMENT LABEL: Activity

{"columns": ["COMPOUND", "RESULT"],
 "data": [
  ["Cc1nc(N)sc1-c1nc(N2CCCC(O)C2)no1 (stereo not given)", "Non-toxic"],
  ["Cc1nc(N)sc1-c1nc(C(C)(C)C)no1", "Non-toxic"],
  ["CC(=O)Nc1nc(C)c(-c2cnc(C(C)(C)C)o2)s1", "Non-toxic"],
  ["Cc1nc(N)sc1-c1cnc(C(C)(C)C)o1", "Toxic"],
  ["CC(=O)Nc1nc(C)c(-c2nc(N3CCCC(O)C3)no2)s1 (stereo not given)", "Non-toxic"]
]}

* * *

- Tested on: Salmonella typhimurium
- MEASUREMENT DESCRIPTION: Mutagenicity in Salmonella typhimurium TA98 up to 5000 ug/ml by Ames test in presence of rat S9 fraction
- Assay type: toxicity, organism-based
- RUN PARAMETERS: salmonella enterica subsp. enterica serovar typhimurium

{"columns": ["COMPOUND", "ASSAYED TARGET", "Activity"],
 "data": [
  ["Cc1nc(N)sc1-c1nc(C(C)(C)C)no1", "Salmonella typhimurium", "Non-toxic"],
  ["CC(=O)Nc1nc(C)c(-c2nc(N3CCCC(O)C3)no2)s1 (stereo not given)", "Salmonella typhimurium", "Non-toxic"],
  ["CC(=O)Nc1nc(C)c(-c2cnc(C(C)(C)C)o2)s1", "Salmonella typhimurium", "Non-toxic"],
  ["Cc1nc(N)sc1-c1cnc(C(C)(C)C)o1", "Salmonella typhimurium", "Toxic"],
  ["Cc1nc(N)sc1-c1nc(N2CCCC(O)C2)no1 (stereo not given)", "Salmonella typhimurium", "Non-toxic"]
]}
